abundance fitness values, listed per item
B1: Cytoplasmic polyadenylation element-binding protein 2, residues 513 to 575; numbered along this chain, Q7Z5Q1 (parent)
chain: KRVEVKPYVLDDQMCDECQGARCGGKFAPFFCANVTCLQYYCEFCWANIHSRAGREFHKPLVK

Variants of: B1
assay-overview: abundance fitness (aPCA) (normalised: wild type 0, dead -1); higher = more abundant; growth selection in yeast, the domain comes from the species named
condition-notes: Homo sapiens

[
  {
    "change": "C15L",
    "abundance fitness": -0.531
  },
  {
    "change": "F31A",
    "abundance fitness": -0.644
  },
  {
    "change": "N48L",
    "abundance fitness": 0.014
  },
  {
    "change": "F44G",
    "abundance fitness": 0.015
  },
  {
    "change": "D16M",
    "abundance fitness": -0.089
  },
  {
    "change": "V35P",
    "abundance fitness": 0.116
  },
  {
    "change": "Q13M",
    "abundance fitness": -0.056
  },
  {
    "change": "T36Y",
    "abundance fitness": -0.153
  },
  {
    "change": "F31N",
    "abundance fitness": -0.608
  },
  {
    "change": "C32Q",
    "abundance fitness": -0.742
  },
  {
    "change": "W46Q",
    "abundance fitness": -0.624
  },
  {
    "change": "L61R",
    "abundance fitness": -0.014
  },
  {
    "change": "W46N",
    "abundance fitness": -0.33
  },
  {
    "change": "L10R",
    "abundance fitness": 0.046
  },
  {
    "change": "K6E",
    "abundance fitness": -0.069
  },
  {
    "change": "E56F",
    "abundance fitness": -0.235
  },
  {
    "change": "D12R",
    "abundance fitness": -0.182
  },
  {
    "change": "A21W",
    "abundance fitness": -0.41
  },
  {
    "change": "Q39F",
    "abundance fitness": -0.472
  },
  {
    "change": "L38I",
    "abundance fitness": -0.115
  },
  {
    "change": "G24E",
    "abundance fitness": 0.018
  },
  {
    "change": "Q13A",
    "abundance fitness": -0.017
  },
  {
    "change": "E17Q",
    "abundance fitness": 0.09
  },
  {
    "change": "A21L",
    "abundance fitness": -0.203
  },
  {
    "change": "R22A",
    "abundance fitness": -0.126
  },
  {
    "change": "A21T",
    "abundance fitness": -0.117
  },
  {
    "change": "K63T",
    "abundance fitness": -0.079
  },
  {
    "change": "I49P",
    "abundance fitness": -0.43
  },
  {
    "change": "V35T",
    "abundance fitness": 0.033
  },
  {
    "change": "I49V",
    "abundance fitness": -0.01
  },
  {
    "change": "H58A",
    "abundance fitness": -0.743
  },
  {
    "change": "C42R",
    "abundance fitness": -1
  },
  {
    "change": "K1L",
    "abundance fitness": -0.417
  },
  {
    "change": "C18I",
    "abundance fitness": -1.05
  },
  {
    "change": "R55G",
    "abundance fitness": -0.176
  },
  {
    "change": "G20E",
    "abundance fitness": -0.462
  },
  {
    "change": "D12K",
    "abundance fitness": 0.012
  }
]
